Listing of recorded IC50 by entry.
TARGET_DESC: Protein farnesyltransferase (Homo sapiens, UniProt P49354+P49356)
ASSAY_SUMMARY: In vitro inhibition of human recombinant Protein farnesyltransferase

COMPOUND_STRUCTURE_STRING	IC50 / µM
O=C(O)C/C(C(=O)O)=C(/CCCCCCCCCCCCCCCCOS(=O)(=O)O)C(=O)O	0.014
O=C(O)C/C(C(=O)O)=C(/CCCCCCCCCCCCCCCCO)C(=O)O	0.0033
COC(=O)C/C(C(=O)OC)=C(/CCCCCCCCCCCCCCCCOS(=O)(=O)O)C(=O)OC	0.0106

Cited source for all entries: ChEMBL document CHEMBL1129156
